Source listed as patent US6737383B1.

system: sugar beet; assay: Test B pre/postemergence sugar beet; type: in vivo, Beta vulgaris; conditions: Rate 500 g/ha, Postemergence; scale 0 to 10, 0 no effect, 10 complete control
MEASURED METRIC: Sugarbeets plant response rating
Please respond with just the number, no unit label.

Worked examples, 5 compounds total:
CC(C)N(C(=O)n1oc(=O)n(-c2cccc3c2CCCC3)c1=O)c1ccc(F)cc1 [Compound 90] ... 3
Cc1cccc(C(C)C)c1-n1c(=O)on(C(=O)N(c2ccc(F)cc2)C(C)C)c1=O [Compound 65] ... 0
C=CCn1c(=O)on(C(=O)N(c2ccc(F)cc2)C2CCCCCC2)c1=O [Compound 249] ... 2
CCCn1c(=O)on(C(=O)N(c2ccccc2)C(C)C)c1=O [Compound 92] ... 6
Cc1ccccc1-n1c(=O)on(C(=O)N(c2ccc3c(c2)CCC3)C(C)C)c1=O [Compound 278] ... 0

Entry CC(C)N(C(=O)n1oc(=O)n(CC(C)(C)C)c1=O)c1ccc(F)cc1 [Compound 246] — recorded Sugarbeets plant response rating = 0

Entry CC(C)N(C(=O)n1oc(=O)n(C2CC2)c1=O)c1ccc(F)cc1 [Compound 242] — recorded Sugarbeets plant response rating = 8

Entry CC(C)=CCCC(C)=CCn1c(=O)on(C(=O)N(c2ccc(F)cc2)C(C)C)c1=O [Compound 262] — recorded Sugarbeets plant response rating = 0

###

tested on: crabgrass; assay: Test B pre/postemergence crabgrass; assay type: in vivo, Digitaria sanguinalis; details: Preemergence, Rate 125 g/ha; 0 is no effect, 10 is complete control
MEASURED METRIC: Crabgrass plant response rating (0 to 10 scale)
Please respond with just the number, no unit label.

Worked examples, 3 molecules total:
Cc1nsc(C)c1-n1c(=O)on(C(=O)N(c2ccc(F)cc2)C(C)C)c1=O [Compound 157] ... 2
CC1CCCCC1n1c(=O)on(C(=O)N(c2ccccc2)C(C)C)c1=O (stereo not shown) [Compound 162] ... 8
Cc1nsc(C)c1-n1c(=O)on(C(=O)N(c2ccc(Cl)cc2)C(C)C)c1=O [Compound 159] ... 0

Entry CC(C)N(C(=O)n1oc(=O)n([C@@H](C)c2ccccc2)c1=O)c1ccccc1 [Compound 168] — recorded Crabgrass plant response rating (0 to 10 scale) = 3

###

System: crabgrass
Test: Test B pre/postemergence crabgrass
Format: in vivo, Digitaria sanguinalis
Details: Preemergence, Rate 500 g/ha; scale of 0 to 10 where 0 is no effect and 10 is complete control
Experimental: […] At the same time, these crop and weed species were also treated with postemergence applications of test chemicals formulated in the same manner. […] Treated plants and controls were maintained in a greenhouse for twelve to sixteen days, after which all species were compared to controls and visually evaluated. […]
In this section we review reported Plant response rating, Crabgrass values for a set of compounds.
Please respond with just the number, no unit label.

CC(C)N(C(=O)n1oc(=O)n(-c2ccsc2)c1=O)c1ccc(F)cc1 ... 2
COC(C)n1c(=O)on(C(=O)N(c2ccc(Cl)cc2)C(C)C)c1=O (stereo not drawn) ... 2

Entry `C=CCn1c(=O)on(C(=O)N(c2ccc(F)cc2)C2CCCCCC2)c1=O` — recorded Plant response rating, Crabgrass = 2

###

In this section we review reported Cocklebur plant response rating values for a set of compounds.
tested on: cocklebur; assay: Test B pre/postemergence cocklebur; assay type: in vivo, Xanthium strumarium; details: Postemergence, Rate 250 g/ha; scale 0 to 10, 0 no effect, 10 complete control
Please respond with just the number, no unit label.

Worked examples, 5 compounds total:
CC(C)N(C(=O)n1oc(=O)n(-c2c(Cl)cccc2Cl)c1=O)c1ccc(F)cc1 ... 0
CC(C)N(C(=O)n1oc(=O)n(-c2ccccc2)c1=O)c1ccc(F)cc1 ... 1
CC(C)N(C(=O)n1oc(=O)n(-c2cnn(C)c2Cl)c1=O)c1ccc(F)cc1 ... 1
Cc1cccc(C(C)C)c1-n1c(=O)on(C(=O)N(c2ccc(Cl)cc2)C(C)C)c1=O ... 0
COc1ccc(-n2c(=O)on(C(=O)N(c3ccc(F)cc3F)C(C)C)c2=O)c(OC)c1 ... 0

Entry `CCN(CC)C(=O)n1oc(=O)n(-c2cc(Cl)cc(Cl)c2)c1=O` — recorded Cocklebur plant response rating = 0

###

system: crabgrass; assay: Test B pre/postemergence crabgrass; format: in vivo, Digitaria sanguinalis; details: Preemergence, Rate 125 g/ha; scale of 0 to 10 where 0 is no effect and 10 is complete control
MEASURED METRIC: Plant response rating, Crabgrass
Please respond with just the number, no unit label.

`CC(C)N(C(=O)n1oc(=O)n(CC(Cl)Cl)c1=O)c1ccc(F)cc1F` on crabgrass gives Plant response rating, Crabgrass = 8

CC(C)N(C(=O)n1oc(=O)n(C(C)C(=O)N(C)C)c1=O)c1ccc(F)cc1F (stereo not drawn) on crabgrass gives Plant response rating, Crabgrass = 8

`CC(C)N(C(=O)n1oc(=O)n(CC2=NOCCO2)c1=O)c1ccc(Cl)cc1` on crabgrass gives Plant response rating, Crabgrass = 4

###

In this section we review reported Sugarbeets plant response rating values for a set of compounds.
test system: sugar beet; assay: Test B pre/postemergence sugar beet; format: in vivo, Beta vulgaris; settings: Preemergence, Rate 500 g/ha; scale 0 to 10 (0 no effect, 10 complete control)
Please respond with just the number, no unit label.

Worked examples, 3 compounds total:
CC(C)N(C(=O)n1oc(=O)n([C@@H](C)c2ccccc2)c1=O)c1ccc(Cl)cc1 [Compound 174] ... 6
CC(C)N(C(=O)n1oc(=O)n(C2CCCCC2)c1=O)c1ccccc1 [Compound 112] ... 0
CC(C)N(C(=O)n1oc(=O)n(N(C)C)c1=O)c1ccc(F)cc1 [Compound 170] ... 10

Entry CC(C)N(C(=O)n1oc(=O)n([C@@H](C)c2ccccc2)c1=O)c1ccccc1 [Compound 168] — recorded Sugarbeets plant response rating = 7

###

In this section we review reported Soybean plant response rating values for a set of molecules.
test system: soybean; assay: Test B pre/postemergence soybean; format: in vivo, Glycine max; details: Rate 125 g/ha; Postemergence; scale 0 to 10, 0 no effect, 10 complete control
Please respond with just the number, no unit label.

Worked examples, 2 molecules total:
Cc1cc(C)c(-n2c(=O)on(C(=O)N(c3ccc(Cl)cc3)C(C)C)c2=O)c(C)c1 ... 3
CC(C)N(C(=O)n1oc(=O)n(-c2ccccc2C(F)(F)F)c1=O)c1ccc(F)cc1 ... 2

Okay, now this molecule:
Entry `CC(C)N(C(=O)n1oc(=O)n(-c2ccccc2)c1=O)c1ccc(F)cc1` — recorded Soybean plant response rating = 0

###

In this section we review reported Plant response rating, Soybean values for a set of compounds.
test system: soybean; experiment: Test B pre/postemergence soybean; format: in vivo, Glycine max; conditions: Rate 250 g/ha, Postemergence; scale 0 to 10, 0 is no effect, 10 is complete control

Worked examples, 3 compounds total:
Cc1nsc(C)c1-n1c(=O)on(C(=O)N(c2ccc(F)cc2)C(C)C)c1=O [Compound 157] ... 1
COc1ccccc1Cn1c(=O)on(C(=O)N(c2ccccc2)C(C)C)c1=O [Compound 104] ... 5
CC(C)N(C(=O)n1oc(=O)n([C@@H](C)c2ccccc2)c1=O)c1ccc(Cl)cc1 [Compound 174] ... 2

Entry CCN(CC)C(=O)n1oc(=O)n(Cc2ccccc2)c1=O [Compound 152] — recorded Plant response rating, Soybean = 1

Entry C=CCn1c(=O)on(C(=O)N(c2ccc(F)cc2)C2CC2)c1=O [Compound 154] — recorded Plant response rating, Soybean = 2

###

system: morningglory; assay: Test B pre/postemergence morningglory; assay type: in vivo, Ipomoea hederacea; conditions: Preemergence, Rate 125 g/ha
MEASURED METRIC: Morningglory plant response rating (0 to 10 scale)
Please respond with just the number, no unit label.

Worked examples, 2 compounds total:
Cc1ccccc1-n1c(=O)on(C(=O)N(c2ccc(Cl)cc2)C(C)C2CC2)c1=O (stereo not drawn) ... 0
Cc1cccc(C(C)(C)C)c1-n1c(=O)on(C(=O)N(c2ccc(F)cc2)C(C)C)c1=O ... 0

Okay, now this compound:
Entry `CC(C)N(C(=O)n1oc(=O)n(C2CCCCCC2)c1=O)c1ccc(F)cc1F` — recorded Morningglory plant response rating (0 to 10 scale) = 0

###

In this section we review reported Morningglory plant response rating values for a set of compounds.
system: morningglory; assay: Test B pre/postemergence morningglory; type: in vivo, Ipomoea hederacea; details: Rate 62 g/ha, Postemergence; scale of 0 to 10 where 0 is no effect and 10 is complete control
Please respond with just the number, no unit label.

CC(C)N(C(=O)n1oc(=O)n(CC(=O)C(C)(C)C)c1=O)c1ccc(F)cc1 [Compound 216] ... 3
CC(C)N(C(=O)n1oc(=O)n([C@@H](C)c2ccccc2)c1=O)c1ccc(Cl)cc1 [Compound 174] ... 3

Okay, now this compound:
Entry CC(C)N(Cc1ccccc1)C(=O)n1oc(=O)n(C(C)C)c1=O [Compound 165] — recorded Morningglory plant response rating = 3
